System: 299254-011-R-J1-PDC complex spheroids viability
protocol_details: Anticancer human tumor 299254-011-R-J1-PDC patient-derived melanoma cell line growth inhibition [GQUAD]
measurement_setup: second compound 3.16 µM; first compound 10 µM; hits give low values
Listing: viability, T/C of selected compounds
Report the value in % with no unit label.

Fill blank: measured viability, T/C of the compound CC(=O)O[C@H]1C(=O)[C@@]2(C)[C@H]([C@H](OC(=O)c3ccccc3)[C@]3(O)C[C@H](OC(=O)[C@H](O)[C@@H](NC(=O)c4ccccc4)c4ccccc4)C(C)=C1C3(C)C)[C@]1(OC(C)=O)CO[C@@H]1C[C@@H]2O + CN(C)c1ccc(Nc2c3ccc(NC(=O)CCN4CCCC4)cc3nc3cc(NC(=O)CCN4CCCC4)ccc23)cc1 is ____. 16.4

Fill blank: measured viability, T/C of the compound CC1COCCN1c1cc(-c2ccnn2C)c2ccnc(-c3ccn[nH]3)c2n1 (stereo not given) + Cc1cnc(CNC(=O)c2c(=O)c3ccc(N4CCCN(C)CC4)nc3n3c2sc2ccccc23)cn1 is ____. 16.7

Fill blank: measured viability, T/C of the compound Nc1ccn(C2OC(CO)C(O)C2(F)F)c(=O)n1 (stereo not given) + Cc1[nH]c2ccc(F)cc2c1-c1nc2c3cccnc3c3ncccc3c2[nH]1 is ____. 52.2

Fill blank: measured viability, T/C of the compound COc1cccc2c1C(=O)c1c(O)c3c(c(O)c1C2=O)CC(O)(C(=O)CO)CC3OC1CC(N)C(O)C(C)O1 (stereo not given) + CN(C)c1ccc(Nc2c3ccc(NC(=O)CCN4CCCC4)cc3nc3cc(NC(=O)CCN4CCCC4)ccc23)cc1 is ____. 27.3

Fill blank: measured viability, T/C of the compound O=c1[nH]cc(F)c(=O)[nH]1 + CN(C)c1ccc(Nc2c3ccc(NC(=O)CCN4CCCC4)cc3nc3cc(NC(=O)CCN4CCCC4)ccc23)cc1 is ____. 106

###

Tested on: 299254-011-R-J1-PDC complex spheroids viability
protocol_details: Anticancer human tumor 299254-011-R-J1-PDC cell line growth inhibition [GQUAD];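 also: spheroids exposed to the agents for seven days before readout; percent viability relative to DMSO vehicle control wells = 100%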
measurement_setup: second compound 3.16 µM; first compound 0.00999 µM; hits give low values
measure_name: viability, T/C (%)
Report the value in % with no unit label.

Reference set, count: 2
Cc1[nH]c2ccccc2c1CCNCc1ccc(/C=C/C(=O)NO)cc1 + CN(C)c1ccc(Nc2c3ccc(NC(=O)CCN4CCCC4)cc3nc3cc(NC(=O)CCN4CCCC4)ccc23)cc1 ... 86.6
CC[C@@]1(O)C(=O)OCc2c1cc1n(c2=O)Cc2cc3c(CN(C)C)c(O)ccc3nc2-1 + CN(C)c1ccc(Nc2c3ccc(NC(=O)CCN4CCCC4)cc3nc3cc(NC(=O)CCN4CCCC4)ccc23)cc1 ... 122

Turning now to a further compound:
Please tell me: viability, T/C of Cc1[nH]c2ccccc2c1CCNCc1ccc(/C=C/C(=O)NO)cc1 + Cc1cnc(CNC(=O)c2c(=O)c3ccc(N4CCCN(C)CC4)nc3n3c2sc2ccccc23)cn1 , system 299254-011-R-J1-PDC complex spheroids viability? 68.4

###

Test system: 299254-011-R-J1-PDC complex spheroids viability
protocol_details: Anticancer human tumor 299254-011-R-J1-PDC cell line growth inhibition [GQUAD]; active means viability on the fitted dose curve at most 10% of control; inactive means the rest;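 also: spheroids exposed to the agents for seven days before readout; percent viability relative to DMSO vehicle control wells = 100%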
measurement_setup: second compound 10 µM; first compound 10 µM
One label from this list, please: label 1 = active, label 0 = inactive

# count of solved cases: 3
CC(=O)O[C@H]1C(=O)[C@@]2(C)[C@H]([C@H](OC(=O)c3ccccc3)[C@]3(O)C[C@H](OC(=O)[C@H](O)[C@@H](NC(=O)c4ccccc4)c4ccccc4)C(C)=C1C3(C)C)[C@]1(OC(C)=O)CO[C@@H]1C[C@@H]2O + Cc1cnc(CNC(=O)c2c(=O)c3ccc(N4CCCN(C)CC4)nc3n3c2sc2ccccc23)cn1 ... label 1
Nc1ccn(C2OC(CO)C(O)C2(F)F)c(=O)n1 (stereo not given) + Cc1[nH]c2ccc(F)cc2c1-c1nc2c3cccnc3c3ncccc3c2[nH]1 ... label 0
CC(C)(O)C1CCC(Nc2ccc3ncc(-c4cccc(C(F)(F)F)c4)n3n2)CC1 (stereo not given) + Cc1[nH]c2ccc(F)cc2c1-c1nc2c3cccnc3c3ncccc3c2[nH]1 ... label 0

Could you kindly confirm the outcome this assay logged for COc1cc(C2c3cc4c(cc3C(OC3OC5COC(C)OC5C(O)C3O)C3COC(=O)C23)OCO4)cc(OC)c1O (stereo not given) + Cc1cnc(CNC(=O)c2c(=O)c3ccc(N4CCCN(C)CC4)nc3n3c2sc2ccccc23)cn1 ? label 1

Could you kindly confirm the outcome this assay logged for CC1COCCN1c1cc(C2(S(C)(=N)=O)CC2)nc(-c2ccnc3[nH]ccc23)n1 (stereo not given) + CN(C)c1ccc(Nc2c3ccc(NC(=O)CCN4CCCC4)cc3nc3cc(NC(=O)CCN4CCCC4)ccc23)cc1 ? label 0
